Entry source: ChEMBL document CHEMBL1165979

A collection of substances and their measured IC50
biological target: 3-hydroxy-3-methylglutaryl-coenzyme A reductase (Homo sapiens, UniProt P04035); assay: Inhibition of HMG-CoA reductase by spectrophotometry; conditions: read-out: IC50
Sequence (P04035 whole entry): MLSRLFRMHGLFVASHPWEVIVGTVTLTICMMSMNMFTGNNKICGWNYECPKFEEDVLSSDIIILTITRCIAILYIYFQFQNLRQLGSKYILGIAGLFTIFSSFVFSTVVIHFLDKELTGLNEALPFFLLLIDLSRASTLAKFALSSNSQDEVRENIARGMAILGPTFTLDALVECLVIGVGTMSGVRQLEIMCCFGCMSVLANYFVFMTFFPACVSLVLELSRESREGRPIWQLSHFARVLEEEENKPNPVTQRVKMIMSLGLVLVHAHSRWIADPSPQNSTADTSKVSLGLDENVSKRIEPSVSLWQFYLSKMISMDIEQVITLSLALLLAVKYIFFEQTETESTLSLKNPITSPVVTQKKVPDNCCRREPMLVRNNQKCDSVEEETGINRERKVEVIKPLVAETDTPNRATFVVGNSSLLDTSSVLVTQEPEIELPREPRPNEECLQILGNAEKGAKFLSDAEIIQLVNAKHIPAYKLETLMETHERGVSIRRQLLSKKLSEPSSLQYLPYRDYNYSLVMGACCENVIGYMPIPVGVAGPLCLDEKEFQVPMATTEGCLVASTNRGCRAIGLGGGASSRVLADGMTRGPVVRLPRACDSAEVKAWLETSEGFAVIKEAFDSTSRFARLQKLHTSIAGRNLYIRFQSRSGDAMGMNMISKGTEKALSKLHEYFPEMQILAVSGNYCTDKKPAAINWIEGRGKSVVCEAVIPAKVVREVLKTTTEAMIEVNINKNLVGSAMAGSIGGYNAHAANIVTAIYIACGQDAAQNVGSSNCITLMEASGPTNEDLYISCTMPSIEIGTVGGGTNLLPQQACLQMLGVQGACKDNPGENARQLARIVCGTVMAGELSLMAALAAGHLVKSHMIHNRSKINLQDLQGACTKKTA
Please give a number only; it is taken to be in nM.

Below: 6 substances and their reported IC50.
| substance | valueUnit | numericReadout |
| --- | --- | --- |
| H-GLPTGG-OH | nM | 19400 |
| H-GFGYVAE-OH | nM | 270 |
| H-FPYVAE-OH | nM | 1470 |
| H-EFGYVAE-OH | nM | 240 |
| H-GLPDGG-OH | nM | 22300 |
| H-GFPDGG-OH | nM | 1520 |

[ask] // lookup IC50 | system=3-hydroxy-3-methylglutaryl-coenzyme A reductase (Homo sapiens, UniProt P04035) | key= "H-TFGYVAE-OH"
[reply] 260

[ask] // lookup IC50 | system=3-hydroxy-3-methylglutaryl-coenzyme A reductase (Homo sapiens, UniProt P04035) | key= "H-FGYVAE-OH"
[reply] 410

[ask] // lookup IC50 | system=3-hydroxy-3-methylglutaryl-coenzyme A reductase (Homo sapiens, UniProt P04035) | key= "H-GFPEGG-OH"
[reply] 1780

[ask] // lookup IC50 | system=3-hydroxy-3-methylglutaryl-coenzyme A reductase (Homo sapiens, UniProt P04035) | key= "H-IAVPGEVA-OH"
[reply] 201000

----------
target: 3-hydroxy-3-methylglutaryl-coenzyme A reductase (Homo sapiens); assay: Inhibition of HMG-CoA reductase by spectrophotometry; settings: read-out: IC50
pIC50: −log10 of the molar value.
pIC50 below 6 gives class 0; pIC50 at or above it gives class 1.

Worked cases, answers included:
| substance | experimentalSystem | assignedLabel |
| --- | --- | --- |
| H-IAVPTGVA-OH | 3-hydroxy-3-methylglutaryl-coenzyme A reductase (Homo sapiens) | class 0 |
| H-GFPTGG-OH | 3-hydroxy-3-methylglutaryl-coenzyme A reductase (Homo sapiens) | class 0 |
| H-FFYVAE-OH | 3-hydroxy-3-methylglutaryl-coenzyme A reductase (Homo sapiens) | class 0 |
| H-GLPEGG-OH | 3-hydroxy-3-methylglutaryl-coenzyme A reductase (Homo sapiens) | class 0 |

Kindly consider the entry below.
[ask] Threshold query (pIC50 >= 6) on "H-DFGYVAE-OH"
[reply] class 1
